Reported values of optical density for individual entries
# system_under_test: mouse ACVR2A (mouse, UniProt P27038 20-135, limits assumed); also: test concentration or dose not given here
# Sequence (P27038 20-135 limits assumed): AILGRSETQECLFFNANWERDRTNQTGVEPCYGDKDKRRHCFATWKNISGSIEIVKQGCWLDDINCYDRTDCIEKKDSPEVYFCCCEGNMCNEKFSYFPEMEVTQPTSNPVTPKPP
# assay_procedure: ELISA
The answer is to be given in OD; state only the numeric part.

binder	quantity	measured_number
366_C05 (antibody, V domains shown, Group II) VH: EVQLLESGGGLVQPGGSLRLSCAASGFTFDDYGMHWVRQAPGKGLEWVSSINYNGGYTGYADSVKGRFTISRDNSKNTLYLQMNSLRAEDTAVYYCARAATWHDTHLDYWGQGTLVTVSS VL: DIQMTQSPSSLSASVGDRVTITCRASQSIISYLNWYQQKPGKAPKLVIYAATSRASGVPSRFSGSGSGTDFTLTISSLQPEDFATYYCQQSYDSPLTFGGGTKVEIK	optical density	2.36
371_D12 (antibody, V domains shown, Group I) VH: EVQLLESGGGLVQPGGSLRLSCAASGFTFDSYGMNWVRQAPGKGLEWVSGINYNGGYKSYADSVKGRFTISRDNSKNTLYLQMNSLRAEDTAVYYCARAANWHDTALDYWGQGTLVTVSS VL: DIQMTQSPSSLSASVGDRVTITCRASQSILSYLNWYQQKPGKAPKLLIYAATSRASGVPSRFSGSGSGTDFTLTISSLQPEDFATYYCQQSYELPLTFGGGTKVEIK	optical density	2
366_H04 (antibody, V domains shown, Group III) VH: EVQLLESGGGLVQPGGSLRLSCAASGFTFDSYGMNWVRQAPGKGLEWVSNINYNGGYKSYADSVKGRFTISRDNSKNTLYLQMNSLRAEDTAVYYCARGANWHDTHLDYWGQGTLVTVSS VL: DIQMTQSPSSLSASVGDRVTITCRASQSILTYLNWYQQKPGKAPKLLIYAATSRASGVPSRFSGSGSGTDFTLTISSLQPEDFATYYCQQSYSSPLTFGGGTKVEIK	optical density	2.83
368_A06 (antibody, V domains shown, Group I) VH: EVQLLESGGGLVQPGGSLRLSCAASGFTFDSYSMHWVRQAPGKGLEWVAGINYNSGYKGYADSVKGRFTISRDNSKNTLYLQMNSLRAEDTAVYYCARAANWHDTHLDYWGQGTLVTVSS VL: DIQMTQSPSSLSASVGDRVTITCRASQSILSYVNWYQQKPGKAPKLLIYAATSRHSGVPSRFSGSGSGTDFTLTISSLQPEDFATYYCQQSYNSPLTFGGGTKVEIK	optical density	2.52

# optical density (binder: 368_B04 (antibody, V domains shown, Group II) VH: EVQLLESGGGLVQPGGSLRLSCAASGFTFDSYGMHWVRQAPGKGLEWVSSINYNGGYTSYADSVKGRFTISRDNSKNTLYLQMNSLRAEDTAVYYCARAATWHDTHLDYWGQGTLVTVSS VL: DIQMTQSPSSLSASVGDRVTITCRASQSIVSYLNWYQQKPGKAPKLVIYAATSRASGVPSRFSGSGSGTDFTLTISSLQPEDFATYYCQQSYENPLTFGGGTKVEIK ) is 2.73

Looking up 366_B05 (antibody, V domains shown, Group III) VH: EVQLLESGGGLVQPGGSLRLSCAASGFTFSDYSMNWVRQAPGKGLEWVSGINYNSGYKSYADSVKGRFTISRDNSKNTLYLQMNSLRAEDTAVYYCARGANWHDTALDYWGQGTLVTVSS VL: DIQMTQSPSSLSASVGDRVTITCRASQSISSYLNWYQQKPGKAPKLVIYAVTSRASGVPSRFSGSGSGTDFTLTISSLQPEDFATYYCQQSYELPLTFGGGTKVEIK , I see its optical density listed as 2.46
